Readings of Ka for the listed binders
# system: T1, OsGID1 (rice gibberellin receptor GID1), Trx-free, used as the OsGID1/GA3 complex (rice (Oryza sativa), UniProt Q6L545 1-354)
# T1 construct: Gibberellin receptor GID1 of rice (Oryza sativa); theoretical MW of the dimer printed as 79.2 kDa; The printed mass (39.6 kDa a monomer) fits the whole protein; source: recombinant, purified
# T1 sequence (looked up): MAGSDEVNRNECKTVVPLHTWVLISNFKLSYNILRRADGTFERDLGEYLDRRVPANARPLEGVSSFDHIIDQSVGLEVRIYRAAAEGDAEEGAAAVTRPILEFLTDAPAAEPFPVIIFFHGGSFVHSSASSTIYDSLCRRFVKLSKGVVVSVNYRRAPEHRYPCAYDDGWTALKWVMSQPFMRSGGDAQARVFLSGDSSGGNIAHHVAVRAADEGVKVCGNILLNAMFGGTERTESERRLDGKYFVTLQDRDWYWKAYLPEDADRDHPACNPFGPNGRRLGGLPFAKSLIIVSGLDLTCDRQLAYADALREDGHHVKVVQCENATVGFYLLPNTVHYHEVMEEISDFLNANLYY
# test-method-notes: ITC; 10 μl aliquants of 400 μM OsGID1/GA3 into 1.4482 ml of 50 μM SLR1 variant, 30 °C, 20 mM sodium phosphate (pH 7.5), 150 mM NaCl, 2.0 mM β-ME, 0.1 mM GA3
# measurement-parameters: both partners purified
Numeric answer only, unit M⁻¹ assumed.

Before answering, review these 3 worked examples.
SLR1(M1-H327) (domain or fragment, rice (Oryza sativa), UniProt Q7G7J6 1-327, looked up, DELLA protein SLR1 of rice (Oryza sativa), residues M1-H327; Named without Trx in the ITC experiments; removal of the tag is told in general in the methods; also called SLR(M1-H327); source: E. coli, purified (HiTrap Chelating, Superdex 200; thrombin, HiTrap Chelating, Superdex 75); not shown: Trx, N-terminal, cleaved; His6, N-terminal, cleaved) MKREYQEAGGSSGGGSSADMGSCKDKVMAGAAGEEEDVDELLAALGYKVRSSDMADVAQKLEQLEMAMGMGGVSAPGAADDGFVSHLATDTVHYNPSDLSSWVESMLSELNAPLPPIPPAPPAARHASTSSTVTGGGGSGFFELPAAADSSSSTYALRPISLPVVATADPSAADSARDTKRMRTGGGSTSSSSSSSSSLGGGASRGSVVEAAPPATQGAAAANAPAVPVVVVDTQEAGIRLVHALLACAEAVQQENFAAAEALVKQIPTLAASQGGAMRKVAAYFGEALARRVYRFRPADSTLLDAAFADLLHAHFYESCPYLKFAH	2e+06
SLR1(M1-A172) (domain or fragment, rice (Oryza sativa), UniProt Q7G7J6 1-172, looked up, DELLA protein SLR1 of rice (Oryza sativa), residues M1-A172; Named without Trx in the ITC experiments; removal of the tag is told in general in the methods; also called SLR(M1-A172); source: E. coli, purified (HiTrap Chelating, Superdex 200; thrombin, HiTrap Chelating, Superdex 75); not shown: Trx, N-terminal, cleaved; His6, N-terminal, cleaved) MKREYQEAGGSSGGGSSADMGSCKDKVMAGAAGEEEDVDELLAALGYKVRSSDMADVAQKLEQLEMAMGMGGVSAPGAADDGFVSHLATDTVHYNPSDLSSWVESMLSELNAPLPPIPPAPPAARHASTSSTVTGGGGSGFFELPAAADSSSSTYALRPISLPVVATADPSA	2.8e+07
SLR1(M28-A112) ΔSPACE(G69-F83) (domain or fragment, rice (Oryza sativa), UniProt Q7G7J6 28-112, looked up, DELLA protein SLR1 of rice (Oryza sativa), residues M28-A112 with G69-F83 deleted; Named without Trx in the ITC experiments; removal of the tag is told in general in the methods; also called SLR(M28-A112)ΔSPACE; source: E. coli, purified (HiTrap Chelating, Superdex 200; thrombin, HiTrap Chelating, Superdex 75); not shown: Trx, N-terminal, cleaved; His6, N-terminal, cleaved) MAGAAGEEEDVDELLAALGYKVRSSDMADVAQKLEQLEMAMVSHLATDTVHYNPSDLSSWVESMLSELNA	390000

Now examine the next entry.
Indicate the recorded Ka value for this binder: SLR1(M28-A112), Trx-free (domain or fragment, rice (Oryza sativa), UniProt Q7G7J6 28-112, looked up, DELLA protein SLR1 of rice (Oryza sativa), residues M28-A112; 13C/15N-labelled for the NMR spectra; also called SLR(M28-A112); source: E. coli, purified (HiTrap Chelating, Superdex 200; thrombin, HiTrap Chelating, Superdex 75); not shown: Trx, N-terminal, cleaved; His6, N-terminal, cleaved) MAGAAGEEEDVDELLAALGYKVRSSDMADVAQKLEQLEMAMGMGGVSAPGAADDGFVSHLATDTVHYNPSDLSSWVESMLSELNA
2.9e+07
